- System Name: Serine/threonine-protein kinase B-raf (Homo sapiens, UniProt P15056, V600E)
- Sequence (P15056 2-766 V600E limits assumed): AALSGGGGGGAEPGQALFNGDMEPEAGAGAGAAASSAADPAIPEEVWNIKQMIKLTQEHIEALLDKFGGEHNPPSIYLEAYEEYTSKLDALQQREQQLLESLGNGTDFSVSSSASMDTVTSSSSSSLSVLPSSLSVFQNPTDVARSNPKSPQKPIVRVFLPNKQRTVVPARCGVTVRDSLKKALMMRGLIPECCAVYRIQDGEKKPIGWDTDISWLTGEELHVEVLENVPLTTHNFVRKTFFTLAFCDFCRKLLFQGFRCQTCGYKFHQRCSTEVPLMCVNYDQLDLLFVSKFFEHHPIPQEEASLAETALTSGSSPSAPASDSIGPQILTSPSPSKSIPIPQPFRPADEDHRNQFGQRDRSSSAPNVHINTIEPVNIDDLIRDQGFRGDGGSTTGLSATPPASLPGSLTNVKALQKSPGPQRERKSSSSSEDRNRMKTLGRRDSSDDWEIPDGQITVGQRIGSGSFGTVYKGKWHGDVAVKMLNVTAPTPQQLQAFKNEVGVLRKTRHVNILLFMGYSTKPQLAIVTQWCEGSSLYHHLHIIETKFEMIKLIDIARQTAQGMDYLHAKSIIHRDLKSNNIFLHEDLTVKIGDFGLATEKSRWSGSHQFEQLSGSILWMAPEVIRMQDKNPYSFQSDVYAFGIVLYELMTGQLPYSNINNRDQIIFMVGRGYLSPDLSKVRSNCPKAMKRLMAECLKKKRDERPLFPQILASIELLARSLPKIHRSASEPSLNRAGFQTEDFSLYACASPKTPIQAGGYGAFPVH
- Method Description: Inhibition of B-Raf V600E mutant
Attribute: IC50
Readout: IC50 (nM)

| Test Smiles | Value Prefix | Readout Value |
| --- | --- | --- |
| Cc1ccc(-n2nc(C(C)(C)C)cc2NC(=O)Nc2ccc(Oc3ccnc4ncc(=O)[nH]c34)cc2)cc1 | = | 2290 |
| CN(C)c1cnc2c(Oc3ccc(NC(=O)Nc4cc(C(C)(C)C)nn4-c4ccccc4)c(F)c3)ccnc2n1 | > | 10000 |
| Cc1nc2nccc(Oc3ccc(NC(=O)Nc4cc(C(F)(F)F)ccc4F)c4ccccc34)c2[nH]c1=O | = | 108 |
| CN(C)c1cnc2c(Oc3ccc(NC(=O)Nc4cc(C(F)(F)F)ccc4F)c(F)c3)ccnc2n1 | = | 220 |
| Cc1ccc(-n2nc(C(C)(C)C)cc2NC(=O)Nc2ccc(Oc3ccnc4nc(N)c(=O)[nH]c34)cc2F)cc1 | = | 222 |
| Nc1nc2nccc(Oc3ccc(NC(=O)Nc4cc(C(F)(F)F)ccc4F)c4ccccc34)c2[nH]c1=O | = | 43 |
| Cc1nc2nccc(Oc3ccc(NC(=O)Nc4cc(C(C)(C)C)nn4-c4ccccc4)c(F)c3)c2[nH]c1=O | = | 8500 |
| Cc1ccc(-n2nc(C(C)(C)C)cc2NC(=O)Nc2ccc(Oc3ccnc4[nH]nnc34)cc2F)cc1 | = | 1370 |
